experimental system: T1, recombinant ILT2 (human) (human, UniProt Q8NHL6 24-461)
T1 construct: also called recombinant ILT2 peptide; ILT2 protein
T1 sequence (Q8NHL6 24-461 limits assumed): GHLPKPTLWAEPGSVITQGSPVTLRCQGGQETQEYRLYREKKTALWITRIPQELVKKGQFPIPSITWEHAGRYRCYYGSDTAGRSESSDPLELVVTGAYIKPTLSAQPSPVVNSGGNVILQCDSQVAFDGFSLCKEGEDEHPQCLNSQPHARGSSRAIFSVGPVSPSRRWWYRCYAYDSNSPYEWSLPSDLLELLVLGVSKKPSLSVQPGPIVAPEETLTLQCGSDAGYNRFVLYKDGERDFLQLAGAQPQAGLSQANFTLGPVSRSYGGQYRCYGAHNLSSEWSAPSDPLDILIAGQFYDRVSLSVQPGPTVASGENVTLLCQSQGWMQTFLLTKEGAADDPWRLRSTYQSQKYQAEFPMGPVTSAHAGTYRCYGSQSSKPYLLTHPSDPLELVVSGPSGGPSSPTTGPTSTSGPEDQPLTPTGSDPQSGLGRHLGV
experiment: SPR (Biacore T200), HEK EBNA supernatants on recombinant ILT2 peptide
Kd for assorted binders
Answer with a number only, understood to be in nM.

| binder | reported result |
| --- | --- |
| humanized 15G8 VH5/Vk2 (antibody, IgG4, V domains shown, Humanized IgG4 (S228P, L235E), kappa; tested as supernatant of transiently transfected HEK EBNA cells) VH: QVQLQGSGPGLVKPSETLSLTCTVTGYSITSGYYWNWIRQPPGKGLEWIGYISYDGSNNYNPSLKNRVTISRDTSKNQFSLKLSSVTAADTATYYCAHGYSYYYAMDAWGQGTTVTVSS VL: DIQMTQSPSSLSASVGDRVTITCRTSQDISNYLNWYQQKPGKAVKLLISYTSRLHSGVPSRFSGSGSGTDYTLTISSLQPEDFATYFCQQGNTLPTFGQGTKLEIK | 7.57 |
| 15G8-34 (humanized 15G8, VH3/Vk4) (antibody, IgG4, V domains shown, Humanized IgG4 (S228P, L235E), kappa) VH: DVQLQGSGPGLVKPSETLSLTCSVTGYSITSGYYWNWIRQPPGKGLEWMGYISYDGSNNYNPSLKNRITISRDTSKNQFSLKLSSVTAADTATYYCAHGYSYYYAMDAWGQGTTVTVSS VL: DIQMTQSPSSLSASVGDRVTITCRTSQDISNYLNWYQQKPGKAPKLLISYTSRLHSGVPSRFSGSGSGTDYTLTISSLQPEDFATYFCQQGNTLPTFGQGTKLEIK | 12.6 |

With those in mind, consider the next binder.
Query: Given the binder 15G8-23 (humanized 15G8, VH2/Vk3) (antibody, human IgG4 S228P, kappa, V domains shown, Humanized IgG4 (S228P, L235E), kappa) VH: DVQLQGSGPGLVKPSETLSLTCSVTGYSITSGYYWNWIRQFPGKKLEWMGYISYDGSNNYNPSLKNRITISRDTSKNQFSLKLSSVTAADTATYYCAHGYSYYYAMDAWGQGTTVTVSS VL: DIQMTQSPSSLSASVGDRVTITCRTSQDISNYLNWYQQKPGKAVKLLISYTSRLHSGVPSRFSGSGSGTDYTLTISSLQPEDFATYYCQQGNTLPTFGQGTKLEIKR , write its reported Kd.
Reply: 8.31
